target: human dopamine D2 receptor (Homo sapiens, UniProt P14416); construct: accorded to it of human dopamine D2 receptor (NM1-000795) registered on NCBI completely; expressed in transfected cells; membrane homogenates; assay: Stimulating activities on human dopamine D2 receptor, [35S]GTPγS binding to hD2R#7 cell membrane homogenates; assay type: biochemical; settings: [35S]GTPγS binding, membrane homogenates of HEK293 cells stably expressing human D2 receptor; mean, n=2; read-out: EC50
Sequence (P14416 whole entry): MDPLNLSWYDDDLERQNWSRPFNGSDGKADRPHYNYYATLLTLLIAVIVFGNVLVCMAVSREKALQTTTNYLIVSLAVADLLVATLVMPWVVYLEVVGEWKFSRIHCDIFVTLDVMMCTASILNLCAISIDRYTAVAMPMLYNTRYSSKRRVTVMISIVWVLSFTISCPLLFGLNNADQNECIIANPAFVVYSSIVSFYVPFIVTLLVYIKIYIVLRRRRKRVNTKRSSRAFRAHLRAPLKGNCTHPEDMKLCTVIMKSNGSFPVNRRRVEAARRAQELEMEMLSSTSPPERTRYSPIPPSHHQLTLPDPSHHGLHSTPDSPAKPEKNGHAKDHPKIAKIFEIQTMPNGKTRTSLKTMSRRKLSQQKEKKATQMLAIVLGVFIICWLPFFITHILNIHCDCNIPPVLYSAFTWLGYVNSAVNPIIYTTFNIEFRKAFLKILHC
pEC50: −log10 of the molar value.
Measured Attribute: pEC50

| Molecule | Assay Value |
| --- | --- |
| CCCN(C(=O)NC1CN(C)C1)C(=O)[C@@H]1C[C@@H]2Cc3c(sc(N)c3C#N)C[C@H]2N(C)C1 | 8.10 |

1: CCCN1C[C@H](C(=O)N(CCCN(C)C)C(=O)NCC)C[C@@H]2Cc3c(sc(N)c3C#N)C[C@H]21
2: CCCCN(C(=O)NCCN1CCN(C)CC1)C(=O)[C@@H]1C[C@@H]2Cc3c(sc(N)c3C#N)C[C@H]2N(C)C1
3: CN(C)CCNC(=O)N(CC1CC1)C(=O)[C@@H]1C[C@@H]2Cc3c(sc(N)c3C#N)C[C@H]2N(C)C1 [1-109]
Request: Put the items in order so that reported pEC50 rises from first to last. Output the labels ranked as instructed.
Response: 2, 1, 3
